B1: CPEB3 Ribozyme (parent)
chain: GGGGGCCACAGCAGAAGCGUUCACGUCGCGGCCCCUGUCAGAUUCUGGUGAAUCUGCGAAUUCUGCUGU

- Variants of: B1
- METHOD NOTES: self-cleavage, relative activity (ratio to wild type); higher = more cleavage; co-transcriptional
Decision: self-cleavage compared against 0.4; not below it gives T, below it gives F.

In: Reported self-cleavage at or above 0.4? GGGGGCCACAGCAGAAGCGUUCACGUCGCGGCCCCUGUCAGAUUCAGGUGCAUCUGCGAAUUCUGCUGU
Out: T

In: Please answer likewise for GGGUGCCACAGCAGAAGCGUUCACGUCGCGGCCCCUCUCAGAUUCUGGUGAAUCUGCGAAUUCUGCUGU
Out: F

In: What would you report for GGGGGCCACAGCAGAAGCGUUCACGUCGCGGCCCCUGUCCGAUUCUGGUGAGUCUGCGAAUUCUGCUGU ?
Out: T

In: Quick one: GGGGGCCACAGCAGAAGCGUUCACGUCGCGGCGCCUGUCAGAUUCUGGUGAAUCUGCGAGUUCUGCUGU
Out: F

In: Would you kindly repeat that for GGGGGCUACAGCAGAAGCGUUCACGUCGCGGCCCCUGUCAGAUUCUGGUGGAUCUGCGAAUUCUGCUGU ?
Out: T

In: Can you check GGGGGCCACAGCAGAAGCGGUCACGUCGCGGCCCCUGUCAGAUUCUGGUGAACCUGCGAAUUCUGCUGU next?
Out: F

In: Please do the same for GGGGGCCACAGCAGAAGCGUUCACGUCGCGGCCCCUGUCAGAUACUGGUGAAUCUGCGAAUUCUACUGU as well.
Out: T

In: // same read-out, input: GGGGGCCACAGCAGAUGCGUUCACGUCGCGGUCCCUGUCAGAUUCUGGUGAAUCUGCGAAUUCUGCUGU
Out: T

In: Follow-up item: GGUGGCCACAGCAGAAGCGUUCACGUCGCGGCCCCUGUCAGAUUCUGGUGAAUCUGCGAAUUCUGGUGU
Out: F

In: Similarly, GGGGGCCACAGCAGAAGCGUUCACGUCGCGGCCCCUGUUAGAUUCUGGUUAAUCUGCGAAUUCUGCUGU ?
Out: T

In: Okay, and GGGGGCCACAGCAGAAGCGUUCACGUCGCGGCCCCUGUCAUAUUCUGGUGAAUCUGCGAAUUCUGCUAU ?
Out: T

In: GGGAGCCACAGCAGAAGCGUUCACGUCGCGGCCCCUGUCAGAUUCUAGUGAAUCUGCGAAUUCUGCUGU ?
Out: T

In: Here is the next variant: GGGGGCCACAGCAGAAGCGUUCACGUCGCGGCCCCUGUCAGAUUCCGCUGAAUCUGCGAAUUCUGCUGU
Out: T

In: Please give the result for GGGGGCCACAGCAGAAGCGUUGACGUCGCGGCCCCUGUCAGAUUCUGGUGAAUCUGCGAAUUCUGCUGC too.
Out: F

In: Follow-up item: GGGGGCCACAGCAGAAGCGUUCACGUCGCGGCCCCUGUCAGAUUAUGGUGAAUCUGCGAAUUCUGCUGG
Out: T

In: Same question for GGGGGCCACAGCAGAAGCCUUCACGUCGCGCCCCCUGUCAGAUUCUGGUGAAUCUGCGAAUUCUGCUGU please.
Out: F

In: Now consider GGGGGCCACAGCAGGAGCGUUCACGUCGCGGCCCCUGUCAGAUUCUGGUGAAUCAGCGAAUUCUGCUGU and answer again.
Out: T

In: Likewise for GGGGGCCACAGCAGAAGCGUUCACAGCGCGGCCCCUGUCAGAUUCUGGUGAAUCUGCGAAUUCUGCUGU ?
Out: F

In: And AGGGGCCACAGGAGAAGCGUUCACGUCGCGGCCCCUGUCAGAUUCUGGUGAAUCUGCGAAUUCUGCUGU ?
Out: F

In: Same for GGGGGCCACAGCAGAAGCGUUCACGUCGCGGCCCAUGUCAGAUUCUGGUGAAUAUGCGAAUUCUGCUGU
Out: F

In: What would you report for GGGGGCCACAGCAGAAGCGUUCACGUCGCGGCCCCUGUCAGAUUCUGGUGAAUCUAUGAAUUCUGCUGU ?
Out: F

In: Try GGGGGCCACAGCGGAAGCGUUCACGUCGCGGCCCCUGUCAGAUUCUUGUGAAUCUGCGAAUUCUGCUGU next.
Out: T
